molecular target: T1, recombinant human CD3 epsilon/delta heterodimer (human, UniProt P07766 23-126; P04234 22-105); experiment: Octet BLI, mAb on FAB2G sensor, hCD3 E/D 200-50 nM; R^2 1.00
T1 construct: Recombinant protein in solution (200-50 nM) in the Octet assay; also called hCD3 E/D; human CD3E/D
T1 sequence (P07766 23-126, stated change not applied, chain 1 of 2): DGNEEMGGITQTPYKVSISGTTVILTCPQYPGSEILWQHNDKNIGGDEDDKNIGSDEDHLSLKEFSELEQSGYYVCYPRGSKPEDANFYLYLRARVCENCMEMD
T1 sequence (P04234 22-105, stated change not applied, chain 2 of 2): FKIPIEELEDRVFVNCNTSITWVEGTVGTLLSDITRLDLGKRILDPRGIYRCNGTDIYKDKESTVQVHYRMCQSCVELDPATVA
Assign Response to each entry below.
Respond numerically, and do not add a unit to the figure.

Which value of Response has been reported for ABL-CD3-36 (antibody, V domains shown, Chimeric hybridoma mAb: human V, CH1, upper hinge; mouse middle hinge, CH2, CH3) VH: EVQLVESGGGLVQRGGSLRLSCAASGFTFSNYWMSWVRQAPGKGLEWVANIKEDGSEKYCVDSVKGRFTISRDNAKHSLYLQMNSLRAEDTAVYYCARERRTGYFDYWGQGTLVTVSS VL: DIQMTQSPSTLSASVGDRVTITCRASQSISSWLAWFQQKTGKAPKLLIYKASSLESGVPSRFSGSGSGTEFTLTISSLQPDDFATYYCQQYISYSWTFGQGTKVEIK in the records?
0.49

Which value of Response has been reported for ABL-CD3-58 (antibody, V domains shown, Chimeric hybridoma mAb: human V, CH1, upper hinge; mouse middle hinge, CH2, CH3) VH: EVQLVESGGGLVKPGGSLRLSCVVSGFTFSNYNMNWVRQAPGKGLEWVSSSSRSSYIYYADSVKGRFTISRDNAKNSLYLQMNSLRAEDTAIYYCAREKWELLFFDYWGQGTLVTVSS VL: NFMLTQPHSVSESPGKTVTISCTRSSGSIASNFVQWYQQRPGSSPTTVIYEDNQRPSGVPDRFSGSIDSSSNSASLTISGLKTEDEADYYCQSFDSSNRVFGGGTKLTVL in the records?
0.57

Which value of Response has been reported for ABL-CD3-1 (antibody, V domains shown, Chimeric hybridoma mAb: human V, CH1, upper hinge; mouse middle hinge, CH2, CH3) VH: EVQLVESGGGLVKPGGSLRLSCAASGFTLSSYSMNWVRQAPGKGLEWVSSISRSGSYIYYADSVKGRFTISRDNAKNSLYLQMNSLRAEDTAVYYCAREKWELLYFDYWGQGTLVTVSS VL: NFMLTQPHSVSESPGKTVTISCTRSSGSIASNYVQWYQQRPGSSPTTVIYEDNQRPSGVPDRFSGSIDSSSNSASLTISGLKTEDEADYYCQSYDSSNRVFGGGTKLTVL in the records?
0.31

Which value of Response has been reported for ABL-CD3-19 (antibody, V domains shown, Chimeric hybridoma mAb: human V, CH1, upper hinge; mouse middle hinge, CH2, CH3) VH: EVQLVESGGGLVKPGGSLRLSCAASGFTLSSYSMNWVRQAPGKGLEWVSSISRSSSYIYYADSVKGRFTISRDNAKNSLYLQMNSLRAEDTAVYYCARERWELLYFDYWGQGTLVTVSS VL: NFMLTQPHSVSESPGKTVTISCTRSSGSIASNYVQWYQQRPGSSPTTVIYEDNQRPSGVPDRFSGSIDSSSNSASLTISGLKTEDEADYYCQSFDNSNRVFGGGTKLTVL in the records?
0.6

Which value of Response has been reported for ABL-CD3-59 (antibody, V domains shown, Chimeric hybridoma mAb: human V, CH1, upper hinge; mouse middle hinge, CH2, CH3) VH: EVQLVESGGGLVKPGGSLRLSCTASGFTLSSYSMNWVRQAPGKGLEWVSSLSRSSNYIYYAVSVKGRFTISRDNAKNSLYLQMNSLRAEDTAVYYCARERWELLYFDYWGQGTLVTVSS VL: NFMLTQPHSVSESPGKTVTISCTRSSGSIASNYVQWYQQRPGSSPTTVIYEDNQRPSGVPDRFSGSIDSSSNSASLTISGLQTEDEADYYCQSYDNSIRVFGGGTKLTVL in the records?
0.81

Which value of Response has been reported for ABL-CD3-6 (antibody, V domains shown, Chimeric hybridoma mAb: human V, CH1, upper hinge; mouse middle hinge, CH2, CH3) VH: EVQLVDSGGGLVKPGGSLRLSCAASGFTFSSYSMNWVRQAPGKGLEWVSSISSRGSYRNYADSVKGRFTISRDNAKNSLYLQMNSLRAEDTAVYYCARDRRELLLDCWGQGTLVTVSS VL: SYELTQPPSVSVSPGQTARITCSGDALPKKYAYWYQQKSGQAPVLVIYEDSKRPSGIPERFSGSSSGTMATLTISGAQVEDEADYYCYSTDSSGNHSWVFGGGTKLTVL in the records?
0.3

Which value of Response has been reported for ABL-CD3-41 (antibody, V domains shown, Chimeric hybridoma mAb: human V, CH1, upper hinge; mouse middle hinge, CH2, CH3) VH: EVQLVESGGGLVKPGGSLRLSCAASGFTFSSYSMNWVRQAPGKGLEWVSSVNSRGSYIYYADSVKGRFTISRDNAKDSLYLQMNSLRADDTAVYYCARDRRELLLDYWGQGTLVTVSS VL: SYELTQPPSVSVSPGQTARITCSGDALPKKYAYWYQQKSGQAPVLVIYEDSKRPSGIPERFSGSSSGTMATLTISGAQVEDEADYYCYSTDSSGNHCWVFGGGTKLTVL in the records?
0.34

Source: patent US20260167721A1
